The compounds listed here are annotated with their pIC50.
molecular target: Trypsin (Homo sapiens); experiment: Biochemical inhibition assay, fluorogenic substrate FSR-AMC
pIC50: −log10 of the molar value.
test.readout: pIC50

structure.as.smiles: Cc1nn(-c2ccc(C(F)(F)F)cc2)c(C)c1NC(=O)COC(=O)Cn1c(C)cc2ccccc21
reported: < 3.70

structure.as.smiles: Cc1nn(-c2ccc(C#N)cc2)c(C)c1NC(=O)COC(=O)Cn1c(C)cc2ccccc21
reported: < 3.70

structure.as.smiles: Cc1nn(-c2ccc([N+](=O)[O-])cc2)c(C)c1NC(=O)COC(=O)Cn1c(C)cc2ccccc21
reported: < 3.70

###

biological target: Thrombin (Homo sapiens, UniProt P00734); assay: Biochemical inhibition assay, fluorogenic substrate FSR-AMC
test.readout: IC50

molecule: COc1ccc(Cn2nc(C)c(NC(=O)COC(=O)Cn3c(C)cc4ccccc43)c2C)cc1 [compound 7]
reported: > 200 µM
--
molecule: Cc1nn(-c2ccc([N+](=O)[O-])cc2)c(C)c1NC(=O)COC(=O)Cn1c(C)cc2ccccc21 [compound 10]
reported: > 200 µM
--
molecule: Cc1cccc(-n2nc(C)c(NC(=O)COC(=O)Cn3c(C)cc4ccccc43)c2C)c1 [compound 3]
reported: > 200 µM
--
molecule: Cc1nn(C)c(C)c1NC(=O)COC(=O)Cn1c(C)cc2ccccc21 [compound 2]
reported: > 200 µM
--
molecule: Cc1nn(-c2ccc(C(F)(F)F)cc2)c(C)c1NC(=O)COC(=O)Cn1c(C)cc2ccccc21 [compound 4]
reported: > 200 µM
--
molecule: Cc1nn(-c2ccccc2)c(C)c1NC(=O)COC(=O)Cn1c(C)cc2ccccc21 [compound 1]
reported: > 200 µM
--
molecule: Cc1nn(-c2ccccc2C(F)(F)F)c(C)c1NC(=O)COC(=O)Cn1c(C)cc2ccccc21 [compound 8]
reported: > 200 µM
--
molecule: Cc1nn(-c2ccccc2)c(C)c1NC(=O)COC(=O)Cn1ccc2ccccc21 [compound 11]
reported: > 200 µM

###

molecular target: KLK6 (Homo sapiens, UniProt Q92876); assay: Biochemical inhibition assay, fluorogenic substrate FSR-AMC; settings: read-out: KLK6 IC50; KLK6 5 nM (produced in insect cells); 30 min incubation with inhibitor; FSR-AMC 20 µM; Tris pH 7.5
pIC50: −log10 of the molar value.
Binary classification by pIC50, with 5 as an inclusive lower bound for Met; all other cases are Not met.

structure.as.smiles: Cc1[nH]c2ccccc2c1CC(=O)OCC(=O)NCc1ncc[nH]1
class.label: Not met

structure.as.smiles: Cc1nn(-c2ccccc2)c(C)c1NC(=O)COC(=O)Cc1ccco1
class.label: Not met

structure.as.smiles: Cc1nn(-c2ccc(N)cc2)c(C)c1NC(=O)COC(=O)Cn1c(C)cc2ccccc21
class.label: Met

structure.as.smiles: Cc1nn(-c2ccccc2N)c(C)c1NC(=O)COC(=O)Cn1c(C)cc2ccccc21
class.label: Met

structure.as.smiles: Cc1nn(-c2ccccc2)c(C)c1NC(=O)COC(=O)Cc1ccccc1N=[N+]=[N-]
class.label: Not met

structure.as.smiles: COc1ccc(CC(=O)OCC(=O)Nc2c(C)nn(-c3ccccc3)c2C)cc1
class.label: Not met

structure.as.smiles: Cc1[nH]c2ccccc2c1CC(=O)OCC(=O)Nc1cnn(-c2ccccc2)c1
class.label: Met

structure.as.smiles: COc1ccccc1NC(=O)COC(=O)Cc1c(C)[nH]c2ccccc12
class.label: Met

structure.as.smiles: COc1ccc(NC(=O)COC(=O)Cc2c(C)[nH]c3ccccc23)cc1
class.label: Met

structure.as.smiles: Cc1[nH]c2ccccc2c1CC(=O)OCC(=O)Nc1cccc(C(N)=O)c1
class.label: Met

structure.as.smiles: Cc1nn(-c2ccccc2)c(C)c1NC(=O)COC(=O)Cc1coc2ccccc12
class.label: Not met

structure.as.smiles: Cc1nn(-c2ccccc2)c(C)c1NC(=O)COC(=O)Cn1ccc2cc(Cl)ccc21
class.label: Not met

structure.as.smiles: CCc1cc2ccccc2n1CC(=O)OCC(=O)Nc1c(C)nn(-c2ccccc2)c1C
class.label: Met
